This section presents molecules with their documented TGI values.
Tested on: BT-549 breast
Measurement Description: NCI tumour cell line growth inhibition, 48 h
Where a SMILES comes first, the peptide text is derived from it. The star is where a group is joined. Boc = CC(C)(C)OC(=O)*; OBn = c1ccc(CO*)cc1; Bn = c1ccc(C*)cc1

Completed entries (count: 5):
| Molecule | TGI |
| --- | --- |
| COc1ccc(OC)c(-c2cc(-c3ccc(Cl)cc3)nn2-c2ccc(S(N)(=O)=O)cc2)c1 | 29.4 µM |
| COC(=O)c1ccc2c(c1)[n+](=O)c(C(C)=O)c(C(F)(F)F)n2[O-] | 4.51 µM |
| CC(=O)Nc1ccc(S(=O)(=O)/N=c2/sc(S(N)(=O)=O)nn2C)cc1 | > 100 µM |
| O=C(O)/C=C/C(=O)Nc1cccc2c1-c1ccccc1C2=O | > 100 µM |
| CN(C)CCNc1ccccn1 | > 100 µM |

Query :: Data request, read-out TGI, for CS(=O)(=O)c1nc(-c2cc3c(c(S(C)(=O)=O)n2)CCC3)cc2c1CCC2
Result :: > 100 µM

Query :: Try this molecule too: Nc1nc(-c2ccccc2)cc(-c2ccc(F)cc2)c1-c1ccc(Cl)cc1
Result :: > 100 µM

Query :: Can you handle CC(=N\O)/C(C)=N/O.CC(=N\O)/C(C)=N/O.[Pd] next?
Result :: > 10 µM

Query :: CC(C)CC(NC(=O)C(CCC(=O)OCc1ccccc1)NC(=O)OC(C)(C)C)C(=O)NC(COCc1ccccc1)C(=O)NC(Cc1ccccc1)C(=O)O (centres undefined) (Boc-E(OBn)LS(Bn)F-OH; configuration not given here) ?
Result :: > 100 µM

Cited source for all entries: PubChem BioAssay (NCI)
